Kindly supply the reported Kcat values for the records listed here.
# ASSAY TEXT: Standard protocol for determination of kcat and KM (continuous spectrophotometric assay, Acetyl CoA hydrolysis at 235 nm)
# Format: biochemical
# CONDITION LABEL: purified protein; about 23° C.; 20 mM HEPES pH 6.8, 10% ethylene glycol, 0.2 mM acetyl CoA

IN: For the molecule SEQ ID NO: 471: GAT polypeptide (protein, 1_2C4, GAT polypeptide) MLEVKPINAEETYELRHKILRPNQPIEACMYETDLLRGSFHLGGFYRGQLISIASFHQAEHSDLQGQKQYQLRGMATLEGYREQKAGSTLIKHAEELLRKKGADLLWCNARTTAAGYYKKLGFSEQGEVFDTPPVGPHILMYKKIT , what Kcat is on record?
OUT: 3.22 s⁻¹

IN: Now try SEQ ID NO: 399: GAT polypeptide (protein, 6_23H3, GAT polypeptide) MIEVKPINAEDTYEIRHRILRPNQPLEACMYGTDLLGGTFHLGGYYRGKLISIASFHQAEQPELEGQKQYQLRGMATLEGYREQKAGSTLIRHAEELLRKKGADLLWCNARTSASGYYKKLGFSEQGGVYDIPPVGPHILMYKKLT .
OUT: 0.732 s⁻¹

IN: Now try SEQ ID NO: 383: GAT polypeptide (protein, 6_16A5, GAT polypeptide) MIEVKPINAEDTYEIRHRILRPNQPLEACKYETDLLGGTFHLGGYYRGKLISIASFHQAEHSELEGQKQYQLRGMATLEGYREQKAGSTLIRHAEELLRKKGADLLWCNARTSASGYYKKLGFSEQGGVYDIPPVGPHILMYKKLT .
OUT: 0.73 s⁻¹
